System: Escherichia coli TOP10
Assay Overview: shrunken log2 fold change of peptide-encoding DNA abundance (4.5 h post-induction vs induction); higher = less antimicrobial activity (less host growth inhibition)
Condition Parameters: time post-induction: 4.5 h; library: site-saturation at positions 5, 18, 19, 20
Lab note: anything with shrunken log2 fold change at or over -0.02 counts as class 1; the rest go in class 0.

> print(dat)
            sequence.record  category
 1  RRIRCRPPRLPRPRPRPQARPRP   class 0
 2  RRIRCRPPRLPRPRPRPPWFPRP   class 1
 3  RRIRVRPPRLPRPRPRPKSEPRP   class 1
 4  RRIRVRPPRLPRPRPRPPLNPRP   class 0
 5  RRIRKRPPRLPRPRPRPPFCPRP   class 0
 6  RRIRDRPPRLPRPRPRPDIKPRP   class 1
 7  RRIRMRPPRLPRPRPRPAKHPRP   class 1
 8  RRIRRRPPRLPRPRPRPNEVPRP   class 0
 9  RRIRERPPRLPRPRPRPMKAPRP   class 1
10  RRIRVRPPRLPRPRPRPSSDPRP   class 0
11  RRIRCRPPRLPRPRPRPPSFPRP   class 1
12  RRIRDRPPRLPRPRPRPTAHPRP   class 1
13  RRIRMRPPRLPRPRPRPPLAPRP   class 1
14  RRIRARPPRLPRPRPRPWCWPRP   class 1
15  RRIRERPPRLPRPRPRPGYAPRP   class 0
16  RRIRPRPPRLPRPRPRPKSWPRP   class 1
17  RRIRGRPPRLPRPRPRPRVCPRP   class 1
18  RRIRCRPPRLPRPRPRPLMAPRP   class 1
19  RRIRSRPPRLPRPRPRPEHFPRP   class 0
20  RRIRIRPPRLPRPRPRPFASPRP   class 0
21  RRIRMRPPRLPRPRPRPYRPPRP   class 0
22  RRIRDRPPRLPRPRPRPNYSPRP   class 0
23  RRIRTRPPRLPRPRPRPLQQPRP   class 1
24  RRIRDRPPRLPRPRPRPVMSPRP   class 0
25  RRIRCRPPRLPRPRPRPALQPRP   class 1
26  RRIRARPPRLPRPRPRPQTNPRP   class 1

====

Entries annotated with measured shrunken log2 fold change
Test system: Escherichia coli TOP10
Assay Overview: shrunken log2 fold change of peptide-encoding DNA abundance (4.5 h post-induction vs induction); higher = less antimicrobial activity (less host growth inhibition)
Condition Parameters: time post-induction: 4.5 h; library: site-saturation at positions 5, 18, 19, 20
Quantity Name: shrunken log2 fold change

> print(dat)
           sequence.record  numeric.value
1  RRIRKRPPRLPRPRPRPWKAPRP           0.49
2  RRIRLRPPRLPRPRPRPMANPRP        -0.0744
3  RRIRMRPPRLPRPRPRPYCNPRP         -0.189
4  RRIRQRPPRLPRPRPRPVDHPRP         -0.335
5  RRIRCRPPRLPRPRPRPYEWPRP        -0.0207

====

Test system: Escherichia coli TOP10;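 further: peptides expressed intracellularly from a pBAD plasmid library in pooled LB shake-flask culture, induced with 0.3% L-arabinose, DNA abundance read by NGS, three biological replicates, DESeq2 with apeglm shrinkage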
Assay Overview: shrunken log2 fold change of peptide-encoding DNA abundance (4.5 h post-induction vs induction); higher = less antimicrobial activity (less host growth inhibition)
Condition Parameters: time post-induction: 4.5 h; library: site-saturation at positions 5, 18, 19, 20
Entries annotated with measured shrunken log2 fold change
Quantity Name: shrunken log2 fold change

> print(dat)
           sequence.record  numeric.value
1  RRIRQRPPRLPRPRPRPSCYPRP         -0.396
2  RRIRKRPPRLPRPRPRPQVLPRP         -0.165
3  RRIRARPPRLPRPRPRPFYWPRP          -0.24
4  RRIRCRPPRLPRPRPRPYSYPRP        -0.0951
5  RRIRWRPPRLPRPRPRPPMKPRP          0.234
6  RRIRPRPPRLPRPRPRPYKKPRP         -0.574
7  RRIRIRPPRLPRPRPRPKFCPRP         -0.639
8  RRIRKRPPRLPRPRPRPYNCPRP        0.00529
9  RRIRFRPPRLPRPRPRPMALPRP         -0.706

Just for reference, the supplement of paper PMC9112550 is where these values come from.
